# reported Emax; entries follow
- targetUnderTest: glutathione-S-transferase (GST) tagged LXRbeta LBD (ligand binding domain) (Homo sapiens, UniProt P55055)
- Construct: purchased Invitrogen pv4658.pps
- Sequence (P55055 222-460 limits assumed): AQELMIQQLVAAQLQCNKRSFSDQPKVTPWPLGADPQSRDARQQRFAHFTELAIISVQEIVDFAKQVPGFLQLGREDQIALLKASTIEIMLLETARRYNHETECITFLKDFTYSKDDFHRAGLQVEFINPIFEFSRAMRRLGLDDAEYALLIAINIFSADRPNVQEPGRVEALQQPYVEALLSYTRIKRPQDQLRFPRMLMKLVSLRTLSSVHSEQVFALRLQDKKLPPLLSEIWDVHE
- testSummary: LanthaScreen TR-FRET Liver X Receptor Coactivator Assay, co-activator recruitment to LXRbeta LBD
- Assay type: biochemical
- settings: efficacy at max dose, in relation to reference dual agonist T0901317; read-out: LXR beta Activity @ max dose (%)
readoutLabel: Emax

[[record]]
compound = "CCOc1cccc([C@@](O)(C(=O)N2CCC(C)(CC3CCN(c4ccc(C(=O)N(C)C)c(C)c4)CC3)CC2)C(F)(F)F)c1 [Example 2-79]"
result = "30%"

[[record]]
compound = "CN(C)C(=O)c1ccc(N2CCC(CC3CCN(C(=O)C(O)(c4ccc(Cl)cc4)C(F)(F)F)CC3)CC2)cc1Cl (centres unmarked) [Example 2-15]"
result = "26%"

[[record]]
compound = "CN(C)C(=O)c1ccc(N2CCC(CC3CCN(C(=O)[C@](O)(c4cccc(C#N)c4)C(F)(F)F)CC3)CC2)cc1Cl [Example 2-88]"
result = "79%"

[[record]]
compound = "CCc1cccc(C(O)(C(=O)N2CCC(CC3CCN(c4ccc(C(=O)N(C)C)c(Cl)c4)CC3)CC2)C(F)(F)F)c1 (centres unmarked) [Example 2-39]"
result = "30%"

[[record]]
compound = "COc1cccc([C@@](O)(C(=O)N2CCC(CC3CN(c4ccc(C(=O)N(C)C)c(OC)n4)C3)CC2)C(F)(F)F)c1 [Example 7-23]"
result = "54%"

[[record]]
compound = "CN(C)C(=O)c1ccc(N2CCC(CC3CCN(C(=O)[C@](O)(c4cccc(Cl)c4)C(F)(F)F)CC3)CC2)nc1Cl [Example 7-69]"
result = "82%"

[[record]]
compound = "CNC(=O)c1ccc(N2CCC(CC3CCN(C(=O)C(O)(c4cccc(Cl)c4)C(F)(F)F)CC3)CC2)cc1Cl (centres unmarked) [Example 7-37]"
result = "90%"

[[record]]
compound = "CN(C)C(=O)c1ccc(N2CCC(CC3CCN(C(=O)[C@](O)(c4ccccc4)C(F)F)CC3)CC2)cc1Cl [Example 2-166]"
result = "46%"

[[record]]
compound = "CNC(=O)c1ccc(N2CCC(CC3CCN(C(=O)C(O)(c4cccc(C#N)c4)C(F)(F)F)CC3)CC2)nc1Cl (centres unmarked) [Example 7-144]"
result = "107%"

[[record]]
compound = "CNC(=O)c1ccc(N2CCC(CC3CCN(C(=O)C(O)(c4cccc(C(F)(F)F)c4)C(F)(F)F)CC3)CC2)cc1Cl (centres unmarked) [Example 7-35]"
result = "78%"

[[record]]
compound = "CN(C)C(=O)c1ccc(N2CCC(CC3CCN(C(=O)[C@](O)(c4cccc(C(F)(F)F)c4)C(F)(F)F)CC3)CC2)nc1Cl [Example 7-87]"
result = "69%"

[[record]]
compound = "CNC(=O)c1ccc(N2CCC(OC3CCN(C(=O)C(O)(c4cccc(OC)c4)C(F)(F)F)CC3)CC2)cc1Cl (centres unmarked) [Example 7-32]"
result = "92%"

[[record]]
compound = "CN(C)C(=O)c1ccc(N2CCC(CC3CCN(C(=O)C(O)(c4cccnc4)C(F)(F)F)CC3)CC2)nc1Cl (centres unmarked) [Example 7-66]"
result = "108%"

[[record]]
compound = "CC(C)Oc1cccc([C@@](O)(C(=O)N2CC(CC3CCN(c4ccc(C(=O)N(C)C)c(Cl)c4)CC3)C2)C(F)(F)F)c1 [Example 2-60]"
result = "66%"

[[record]]
compound = "CNC(=O)c1ccc(N2CCC(CC3CCN(C(=O)C(O)(C(C)C)C(F)(F)F)CC3)CC2)nc1Cl (centres unmarked) [Example 7-143]"
result = "104%"

[[record]]
compound = "COc1cccc(C(O)(C(=O)N2CCC(CCC3CCN(c4ccc(C(=O)N(C)C)c(Cl)c4)CC3)CC2)C(F)(F)F)c1 (centres unmarked) [Example 2-163]"
result = "39%"

[[record]]
compound = "CNC(=O)c1ccc(N2CCC(CC3CCN(C(=O)[C@](O)(c4cccc(OC(F)(F)F)c4)C(F)(F)F)CC3)CC2)nc1Cl [Example 7-139]"
result = "91%"

[[record]]
compound = "CN(C)C(=O)c1ccc(N2CCC(CC3CN(C(=O)C(O)(c4cccc(Cl)c4)C(F)(F)F)C3)CC2)cc1Cl (centres unmarked) [Example 2-65]"
result = "89%"

[[record]]
compound = "CNC(=O)c1ccc(N2CCC(CC3CCN(C(=O)[C@](O)(c4cc(Cl)cc(Cl)c4)C(F)(F)F)CC3)CC2)cc1Cl [Example 7-116]"
result = "76%"

[[record]]
compound = "COc1cccc([C@@](O)(C(=O)N2CCC(CC3CCN(c4cnc(C(=O)N(C)C)c(Cl)c4)CC3)CC2)C(F)(F)F)c1 [Example 2-3]"
result = "50%"

[[record]]
compound = "CCOc1cccc([C@@](O)(C(=O)N2CC(CC3CCN(c4ccc(C(=O)N(C)C)c(Cl)c4)CC3)C2)C(F)(F)F)c1 [Example 2-62]"
result = "71%"

[[record]]
compound = "CNC(=O)c1ccc(N2CCC(CC3CCN(C(=O)C(O)(c4cccnc4)C(F)(F)F)CC3)CC2)nc1Cl (centres unmarked) [Example 7-142]"
result = "133%"

[[record]]
compound = "CC(C)Oc1cccc([C@@](O)(C(=O)N2CCC(C)(CC3CCN(c4ccc(C(=O)N(C)C)c(Cl)n4)CC3)CC2)C(F)(F)F)c1 [Example 7-48]"
result = "64%"

[[record]]
compound = "Cc1cccc(C(O)(C(=O)N2CCC(CC3CCN(c4ccc(C(=O)N(C)C)c(C)n4)CC3)CC2)C(F)(F)F)c1 (centres unmarked) [Example 7-6]"
result = "70%"

[[record]]
compound = "CNC(=O)c1ccc(N2CCC(CC3CCN(C(=O)[C@](O)(c4ccccc4F)C(F)(F)F)CC3)CC2)nc1Cl [Example 7-145]"
result = "115%"

[[record]]
compound = "COc1cc(Cl)cc([C@](O)(C(=O)N2CCC(CC3CCN(c4ccc(C(=O)N(C)C)c(Cl)n4)CC3)CC2)C(F)(F)F)c1 [Example 7-108]"
result = "101%"

